Target: T1, recombinant human LAG3 expressed with a C-terminal myc-myc-hexahistidine tag (human, UniProt P18627 29-450)
T1 construct: also called hLAG3-mmh; hLAG3.mmh
T1 sequence (P18627 other isoform, or with tags, fused parts or gaps limits assumed): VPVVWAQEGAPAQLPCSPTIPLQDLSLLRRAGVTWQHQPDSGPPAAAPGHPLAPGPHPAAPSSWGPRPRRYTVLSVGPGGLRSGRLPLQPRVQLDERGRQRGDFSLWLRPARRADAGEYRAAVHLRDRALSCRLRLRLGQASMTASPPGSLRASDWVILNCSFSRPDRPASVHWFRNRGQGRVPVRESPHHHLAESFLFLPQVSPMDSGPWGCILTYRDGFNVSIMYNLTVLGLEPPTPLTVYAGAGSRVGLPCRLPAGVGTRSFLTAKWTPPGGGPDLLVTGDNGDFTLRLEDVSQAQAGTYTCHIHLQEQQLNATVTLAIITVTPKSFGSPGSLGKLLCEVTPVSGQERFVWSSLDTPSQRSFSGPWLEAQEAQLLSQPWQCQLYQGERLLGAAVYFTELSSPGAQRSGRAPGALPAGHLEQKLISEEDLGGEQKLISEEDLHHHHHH
Experiment: SPR, mAb captured, 37 C
Quantity Name: kon (M⁻¹ s⁻¹)
Return type: number; implicit unit M⁻¹ s⁻¹.

[[record]]
binder = "H4H17823P (antibody, human IgG4, V domains shown, H4H = human IgG4 Fc with S108P hinge mutation) VH: EVQLLESGGGLVQPGGSLRLSCAASGFTFRSYAMSWVRQAPGKGLEWVSVISGGGGRTYYTDSVKGRFTISRDNSKSMLYLQMNSLRAEDTAIYYCAKERVTGIDHYYYGVDVWGQGTTVTVSS VL: DIQMTQSPSSLSASVGDRVTITCRASQSISSYLNWYQQKPGKAPKLLIYATSSLQSGVPSRFSGSASGTDFTLAISSLQPEDFATYYCQQSYTTPLTFGGGTKVEIK"
unit_spec = "M⁻¹ s⁻¹"
result = "1.76e+06"

[[record]]
binder = "H4H17819P (antibody, human IgG4, V domains shown, H4H = human IgG4 Fc with S108P hinge mutation) VH: EVQLVESGGGLVQPGGSLRLSCVASGFTFSLYAMTWVRQVPGKGLEWVSTISGSGGGTYYTDSVKGRFTISRDNSKNTLYLQMNSLRADDTAVFYCTKESTTGTYSYFYGMDVWGQGTTVTVSS VL: DIQMTQSPSSLSASVGDRVTITCRASQTISSYLNWYQQKPGKAPKLLIYAASSLQSGVPSRFSGSGSGTDFTLTLSGLQPEDFATYYCQQSYSTPLTFGGGTKVEIK"
unit_spec = "M⁻¹ s⁻¹"
result = "1.59e+06"

[[record]]
binder = "H4H14813N (antibody, human IgG4, V domains shown, H4H = human IgG4 Fc with S108P hinge mutation) VH: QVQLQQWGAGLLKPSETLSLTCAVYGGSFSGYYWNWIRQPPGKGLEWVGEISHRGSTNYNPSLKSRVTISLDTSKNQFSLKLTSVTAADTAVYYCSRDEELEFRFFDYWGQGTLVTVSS VL: EIVLTQSPATLSLSPGERATLSCRASQSVSSYLAWYQQKPGQAPRLLVYGASNRATGIPARFSGSGSGTDFTLTISSLEPEDFAFYYCQQRSNWPLTFGGGTKVEIK"
unit_spec = "M⁻¹ s⁻¹"
result = 535000


Prompt: Given the entry H4sH14813N (antibody, human IgG4 S228P, kappa, V domains shown, H4sH = modified human IgG4 Fc) VH: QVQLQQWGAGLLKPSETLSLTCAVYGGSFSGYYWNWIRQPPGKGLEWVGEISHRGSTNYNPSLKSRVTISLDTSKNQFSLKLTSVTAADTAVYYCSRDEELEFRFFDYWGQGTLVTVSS VL: EIVLTQSPATLSLSPGERATLSCRASQSVSSYLAWYQQKPGQAPRLLVYGASNRATGIPARFSGSGSGTDFTLTISSLEPEDFAFYYCQQRSNWPLTFGGGTKVEIKR , report its measured kon.
Response: 578000
